# measurement-protocol: soluble on expression in E. coli; label from the status in PepcDB or PDB records
experimental-endpoint: soluble on expression in E. coli

record_sequence=MSGRLIGKVALVSGGARGMGASHVRAMVAEGAKVVFGDILDEEGKAVAAELADAARYVHLDVTQPAQWTAAVDTAVTAFGGLHVLVNNAGILNIGTIEDYALTEWQRILDVNLTGVFLGIRAVVKPMKEAGRGSIINISSIEGLAGTVACHGYTATKFAVRGLTKSTALELGPSGIRVNSIHPGLVKTPMTDWVPEDIFQTALGRAAEPVEVSNLVVYLASDESSYSTGAEFVVDGGTVAGLAHNDFGAVEVSSQPEWVT experimental_endpoint="soluble on expression in E. coli" value_reported="not soluble"
record_sequence=MANSLAIIADPKTGKTYKREIPSERMSSLIGRKIGEEVDGVFFDLVGYKMKITGGSSVDGFAMRPDLQTQGKKQILVKYTSGYRGKNGIRKRITARGSIIGSDITQINLKITQYGPTLEHHHHHH experimental_endpoint="soluble on expression in E. coli" value_reported="not soluble"
